Biological target: T1, full-length trimeric SARS-CoV-2 Spike protein (Spike-H6) (SARS-CoV-2, N-glycosylated (22 N-glycosylation sites))
T1 construct: also called trimeric Spike; full-length Spike-H6
Assay: ELISA screen
Known Mean normalized OD of a selection of binders
Numeric only. Scale: OD

binder	Mean normalized OD, OD
Siglec12 CRD-mouse IgG2a-Fc fusion protein (Fc fusion) PQEVFTLNVERKVVVQEGLCVLVPCNFSYLKKRLTDWTDSDPVHGFWYREGTDRRKDSIVATNNPIRKAVKETRNRFFLLGDPWRNDCSLNIREIRKKDAGLYFFRLERGKTKYNYMWDKMGGGSGGGSGGGS	0.046
Mrc1_7 CRD-mouse IgG2a-Fc fusion protein (Fc fusion) YGKSSYSLMKLKLPWHEAETYCKDHTSLLASILDPYSNAFAWMKMHPFNVPIWIALNSNLTNNEYTWTDRWRVRYTNWGADEPKLKSACVYMDVDGYWRTSYCNESFYFLCKGGGSGGGSGGGS	-0.002
Clec2l CRD-mouse IgG2a-Fc fusion protein (Fc fusion) YGRKCYYFSEEPRDWNTGRQYCHTHEAALAVIQSQKELEFMFKFTRREPWIGLRRVGDDFHWVNGDPFDPDTFTISGMGECVFVEPTRLVSTECLTTRPWVCSGGGSGGGSGGGS	-0.001
Grifin CRD-mouse IgG2a-Fc fusion protein (Fc fusion) FEAFCAGGLAPGWSLTVQGHADAGEEKFEINFLTDAGDIAFHVKPRFSSATVVGNAFQGGRWGQEEVSSIFPLTLGEPFEMEVSADAEHFHIYAQEQKVLQFPHRHRPLATITRVRVLSEHRLAQVELAGGGSGGGSGGGS	0.004
Cd209d CRD-mouse IgG2a-Fc fusion protein (Fc fusion) FFNGSCYFFSKSQRNWHNSTTACQELGAQLVIIETDEEQTFLQQTSKARGPTWMGLSDMHNEATWHWVDGSPLSPSFTRYWNRGEPNNVGDEDCAEFSGDGWNDLSCDKLLFWICKGGGSGGGSGGGS	0.01
Clec2d CRD-mouse IgG2a-Fc fusion protein (Fc fusion) VENKCFYFSEYPSNWTFAQAFCMAQEAQLARFDNQDELNFLMRYKANFDSWIGLHRESSEHPWKWTDNTEYNNTIPIRGEERFAYLNNNGISSTRIYSLRMWICSKLNSYSLHCQTGGGSGGGSGGGS	-0.106

Shifting focus to the binder that follows.
Qu. Need Mean normalized OD of Sele CRD-mouse IgG2a-Fc fusion protein (Fc fusion) WYYNASSELMTYDEASAYCQRDYTHLVAIQNKEEINYLNSNLKHSPSYYWIGIRKVNNVWIWVGTGKPLTEEAQNWAPGEPNNKQRNEDCVEIYIQRTKDSGMWNDERCNKKKLALCYGGGSGGGSGGGS , thanks.
Ans. 0.001
